Target: T1, ZAP70 tSH2-GFP (tandem SH2 domains of human ZAP70, amino acids 1-264, with C-terminal GFP) (human, UniProt P43403 1-264)
T1 chain: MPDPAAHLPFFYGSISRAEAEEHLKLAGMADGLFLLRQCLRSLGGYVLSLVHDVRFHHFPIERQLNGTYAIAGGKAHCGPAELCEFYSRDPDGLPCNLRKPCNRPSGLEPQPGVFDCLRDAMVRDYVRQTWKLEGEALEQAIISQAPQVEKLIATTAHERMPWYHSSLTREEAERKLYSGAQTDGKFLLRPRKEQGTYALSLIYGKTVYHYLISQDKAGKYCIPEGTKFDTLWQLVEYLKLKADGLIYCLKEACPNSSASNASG
Assay: SPR; 37°C
Square brackets hold non-standard residues; d marks the D form. Ends that are not written are not given here. * marks the point of attachment. Biotin = O=C1N[C@H]2[C@H](CS[C@H]2CCCCC(=O)*)N1; pY = N[C@@H](Cc1ccc(OP(=O)(O)O)cc1)C(=O)O
Observation type: Kd (µM)
All answers are understood in µM, so give the number only.

Inquiry: // Input: Biotin-GKGHDLL[pY]QGLSTATKDTYDALHMQ [ITAM3 N (N-monophosphorylated CD3ζ ITAM3 peptide)] . Output its Kd only.
Reply text: 20.7

Inquiry: State its Kd for this binder: Biotin-GKGHDLLYQGLSTATKDT[pY]DALHMQ [ITAM3 C (C-monophosphorylated CD3ζ ITAM3 peptide)]
Reply text: 7.52

Where do the numbers come from? From paper doi:10.1101/2020.02.12.945170.
